Recorded values, source PubChem BioAssay (NCI).

Test system: NCI-H522 lung
Test: NCI tumour cell line growth inhibition, 48 h
Documented TGI across a set of compounds
Reply with just the number (in µM).

// worked examples, TGI included
C=C1C(=O)O[C@H]2[C@H]1CC/C(COC(=O)N1CCC[C@H]1C(=O)Nc1ccc(OC)c(C(N)=O)c1O)=C\CC[C@@]1(C)O[C@@H]21: 4.07
CO/N=C(\C)c1ccc(Nc2cc(-c3ccccc3)nc3c(O)cccc23)cc1: 62.1
Cn1nc(-c2ccccc2)c(C(=O)/C=C/c2ccccc2)c(N2CCOCC2)c1=O: 29.9
Cc1cc2c3ccccc3n(C)c2c2c1C(=O)C=CC2=O: 31.8
CC(=O)[O-].CC(=O)[O-].[NH2-].[Pt+2].c1ccc2cnccc2c1: 24.9
O=C1/C(=C/c2ccc(O)cc2)COc2ccc(-c3ccccc3)cc21: 16.4
C=CC[C@H](C)CCC(=O)N1[C@H]2CC3CC[C@@]2(CS1(=O)=O)C3(C)C: 99
CSc1ccc(/C=C2\N=C(c3ccccc3)N(c3nc4ccc(Sc5ccccc5)cc4[nH]3)C2=O)cc1: 39.9
Brc1ccccc1-c1ncc(-c2ccccc2)o1: 49.9

Moving on to another compound below.
Determine from records and report TGI for CN1CN(c2ccccc2)C2(CCN(CCc3csc4ccccc34)CC2)C1=O 34.4

###

System: A498 renal
Assay: NCI tumour cell line growth inhibition, 48 h; in the data active means GI50 below about 0.43 µM; inactive means the rest
The reply should be one of these categories: true (active), false (inactive)

Here are 6 compounds together with their reported answers.
ClCc1c(Cl)c(Cl)c(Cl)c(CCl)c1Cl: false
CC(=O)O[C@@H]1CC2C(C)(C)CCCC2(C)C2=C1C(=O)C(C(C)C)=CC2=O (some centres not stated): false
C[C@@H]1CN(CC(=O)N2CC(C)(C)c3nc(CO)c(Cc4ccc(F)cc4)cc32)[C@@H](CN2CCOC[C@H]2C)CN1: false
CC1OC2CC(=O)OC2C2=C1C(=O)c1c(O)c3c(c(O)c1C2=O)C1CC(O)C3(O)C(C)O1 (configuration not stated): false
COc1ccc(-c2cncn2-c2ccc(OC)cc2)cc1: false
CCN(Cc1ccccc1OC)c1ccc(CO)c(Cl)c1: true

With those in mind, consider the next compound.
Called result for COc1ccc(-c2cn(-c3ccccc3)c(-c3ccccc3)n2)cc1OC false

###

System: SR leukemia
Assay: NCI tumour cell line growth inhibition, 48 h
Documented TGI across a set of compounds

O=c1cc(-c2ccccc2)c2cc3c(=O)ccoc3cc2o1: > 100 µM
CC(C)C1OC(=O)/C=C/C=C/C=C/C=C/C=C/CC(O)CC(O)CC(O)CC(O)CC(O)CC(O)CC(O)CC(O)/C=C/C1C (configuration not stated): > 100 µM
CC[n+]1c(/C=C/c2ccc(N(CCCl)CCCl)cc2)ccc2cc(NC(=O)/C=C/c3ccccc3)ccc21: 0.728 µM

Determine from records and report TGI for COc1cc2c(cc1OC)CC(N=[N+]=[N-])c1cc(OC)c(OC)cc1/C=C\2 (configuration not stated) > 100 µM

Determine from records and report TGI for CC/C=C\C/C=C\C/C=C\CCCCCCCC(=O)OCC > 100 µM

Determine from records and report TGI for S=C1N=C(Cl)C2(NN1)c1ccccc1-c1ccccc12 > 10 µM

Determine from records and report TGI for Cn1c(-c2cccs2)cc(-c2cccs2)c1-c1ccsc1 > 100 µM

Determine from records and report TGI for Nc1cc(N)c(N)cc1N 7.66 µM

Determine from records and report TGI for O=C(CSC(=S)N1CCOCC1)Nc1nc2c(s1)CCCC2 > 100 µM

Determine from records and report TGI for CC(C)=CCC/C(C)=C/CC/C(C)=C/CC/C(C)=C/CC/C(C)=C\CC/C(C)=C/CC/C(C)=C/CC/C(C)=C/Cc1cc(O)ccc1O 1.8 µM

Determine from records and report TGI for NCc1ccc(C(=O)O)cc1 > 100 µM

Determine from records and report TGI for N#Cc1ccc(OCc2nc3cc(C(F)(F)F)ccc3nc2-c2ccccc2)cc1 > 100 µM

Determine from records and report TGI for COc1ccc(-c2cc(N3CCN(c4ccccc4)CC3)c(C#N)c(=O)o2)cc1 > 100 µM

Determine from records and report TGI for CN(C)Cc1cc(N=Nc2ccccc2)cc(CN(C)C)c1O > 100 µM

Determine from records and report TGI for CNC1=CC(=O)C2=C(C1=O)[C@H]1CC[C@]3(C)C(=O)CC[C@H]3[C@@H]1CC2 > 60.8 µM

Determine from records and report TGI for CC(C)CC1=[N+]=C(NC#N)N=C(CCC(=O)Nc2ccccc2[N+](=O)[O-])C1 > 100 µM

Determine from records and report TGI for CCOP(=O)(OCC)C(NC(c1ccccc1)c1ccccc1)c1cccc2ccccc12 (configuration not stated) > 100 µM

Determine from records and report TGI for Cc1cccc(C(C)C)c1NC(=O)C(=O)CC(=O)c1c(C)n([O-])c2ccccc2[n+]1=O 78.5 µM

Determine from records and report TGI for O=C1/C(=C/c2ccc(O)cc2)COc2ccc(-c3ccccc3)cc21 > 28.4 µM

###

System: CCRF-CEM leukemia
Assay: NCI tumour cell line growth inhibition, 48 h
Documented TGI across a set of molecules

Cc1nc2ccccc2c(=O)[nH]1: > 100 µM
CO/N=C(\C)c1ccc(Nc2cc(-c3ccccc3)nc3c(O)cccc23)cc1: 22.6 µM
COc1ccc(N=C(Nc2ccc(OC)cc2)C(=Nc2ccc(OC)cc2)Nc2ccc(OC)cc2)cc1: > 100 µM
COc1ccc2c3c(c(=O)n(C)c2c1OC)C=CC(C)(C)O3: 88.3 µM
N/C(=N/n1c(=S)[nH]c2ccccc2c1=O)Nn1c(=S)[nH]c2ccccc2c1=O: 48.2 µM
O=C(CCl)N1c2ccccc2Sc2c1ccc1ccccc21: 36.6 µM

Determine from records and report TGI for C=CC[C@H]1[C@H](O[Si](C)(C)C(C)(C)C)C=CC(=O)[C@@H]1CC(=O)N(Cc1ccccc1)Cc1ccccc1 > 100 µM

Determine from records and report TGI for CSc1nc2c(nc(N)n2C2OCC(O)C(O)C2O)c(=O)n1C (stereo unspecified) > 100 µM

Determine from records and report TGI for CC(C)NC(=O)OCCS(=O)c1c(Cl)c(Cl)nn1C (stereo unspecified) > 100 µM

Determine from records and report TGI for O=C(N/N=C\c1ccc2ccccc2c1)Nc1ccc([N+](=O)[O-])cc1 > 100 µM

Determine from records and report TGI for COC(=O)c1cc(C#Cc2cc(OC)ccc2OC)ccc1OC > 100 µM

Determine from records and report TGI for CC[C@H]1OC([C@H](O)C/C=C\C#C[Si](C)(C)C)C/C=C\C[C@H]1O[Si](C)(C)C(C)(C)C (stereo partly specified) > 100 µM

Determine from records and report TGI for NNC(=O)CCC(=O)NC1C2CC3CC(C2)CC1C3 (stereo unspecified) > 100 µM

Determine from records and report TGI for CCC(=O)O[C@H]1CC[C@H]2[C@@H]3CCC4=C/C(=N/NC(=O)c5cccc6c(=O)c7ccccc7[nH]c56)CC[C@]4(C)[C@H]3CC[C@]12C > 25 µM

Determine from records and report TGI for COC(=O)/N=[N+](\[O-])C(c1ccc(OC)cc1)C1CCCCC1 (stereo unspecified) 20.6 µM

Determine from records and report TGI for COc1ccc(O)c(C#N)c1C#N > 100 µM

Determine from records and report TGI for CC(=O)n1c2ccccc2c2nc3nc(Oc4ccc(C)cc4)c4ccccc4c3cc21 > 100 µM

Determine from records and report TGI for O=NNc1nc(-c2cccnc2)nc2ccccc12 > 100 µM

Determine from records and report TGI for COC(=O)C1C2C=CC(C2)N1[C@@H](C)c1ccccc1 (stereo partly specified) > 100 µM

Determine from records and report TGI for COc1cc([C@@H]2c3cc4c(cc3[C@@H](NC(=O)c3ccccc3)C3COC(=O)[C@@H]32)OCO4)cc(OC)c1O (stereo partly specified) > 100 µM

Determine from records and report TGI for CC[C@H](CC#N)OC(=O)N[C@@H](C)c1cccc(NC(=O)Nc2ccc(-c3cnco3)c(OC)c2)c1 35.8 µM

Determine from records and report TGI for CC(=O)[O-].CC(=O)[O-].[NH2-].[Pt+2].c1ccc2cnccc2c1 > 100 µM

Determine from records and report TGI for Cn1c(-c2cccs2)cc(-c2cccs2)c1-c1ccsc1 > 100 µM

Determine from records and report TGI for O=C1CC[C@@H](S(=O)(=O)c2ccccc2)[C@@H](/C=C/c2ccccc2)O1 > 100 µM

Determine from records and report TGI for COc1ccc(NC(=O)/C(=C/c2ccc(N(CCC#N)CCC#N)cc2)NC(=O)c2cc([N+](=O)[O-])ccc2Cl)cc1 > 100 µM

Determine from records and report TGI for OCc1ccc(-c2nn(Cc3ccccc3)c3ccccc23)o1 > 95.9 µM

###

Tested on: MCF7 breast
Test: NCI tumour cell line growth inhibition, 48 h
Documented TGI across a set of compounds

// worked examples, TGI included
S=C1N=C(Cl)C2(NN1)c1ccccc1-c1ccccc12: > 10 µM
N/C(=N/n1c(=S)[nH]c2ccccc2c1=O)Nn1c(=S)[nH]c2ccccc2c1=O: > 100 µM
S=c1[nH]c(=S)c2cc(Sc3ccc4[nH]c(=S)[nH]c(=S)c4c3)ccc2[nH]1: > 100 µM

Moving on to another compound below.
Determine from records and report TGI for c1ccc(CSc2nc(N3CCOCC3)c3cn[nH]c3n2)cc1 > 100 µM
